Data credit: the MegaScale stability set (Tsuboyama et al. 2023)

Listing of entries alongside the reported folding stability dG.
B1: EHEE_rd4_0726 (parent)
chain: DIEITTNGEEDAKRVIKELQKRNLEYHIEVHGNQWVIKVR

Variants of: B1
method.description: folding stability dG (cDNA display proteolysis); higher = more stable
conditions.used: PBS, room temperature
Return type: number; implicit unit kcal/mol.

Examples with their reported folding stability dG follow.
Request: Annotate the variant D1E with its measured folding stability dG.
Result: 2.59

Request: Please report the measured folding stability dG for I4T
Result: 0.528

Request: Specify reported folding stability dG for the variant shown: H27E
Result: 2.66

Request: Hello, please tell me recorded folding stability dG for this one: K13T
Result: 1.96

Request: Report folding stability dG, nothing else, for this variant: G8D
Result: 2.64

Request: Entry I28S needs its folding stability dG filled in; supply it.
Result: 0.224

Request: Give reported folding stability dG value for E29V
Result: 2.3

Request: Please report folding stability dG for the following variant: R22G
Result: 1.45

Request: Tell me its folding stability dG given D1C as the entry.
Result: 2.75

Request: Find the measured folding stability dG of I28Y and report it.
Result: 1.48

New cases:
Request: Check the records and state folding stability dG for N33Q
Result: 2.09

Request: Output measured folding stability dG for this item: D1L
Result: 2.76

Request: Identify folding stability dG associated with the variant R40E
Result: 1.73
